Hello, the source for this data is patent US20180148504A1, in case you need it.

# key: entry, value: Specific signal at 500 pg/mL
Target: T1, recombinant purified FRα (ECL assay calibrator) (human, UniProt P15328 25-234)
T1 construct: Calibrator of the ECL sandwich assays; also called FRα calibrator; FRα standard
T1 sequence (P15328 25-234 limits assumed): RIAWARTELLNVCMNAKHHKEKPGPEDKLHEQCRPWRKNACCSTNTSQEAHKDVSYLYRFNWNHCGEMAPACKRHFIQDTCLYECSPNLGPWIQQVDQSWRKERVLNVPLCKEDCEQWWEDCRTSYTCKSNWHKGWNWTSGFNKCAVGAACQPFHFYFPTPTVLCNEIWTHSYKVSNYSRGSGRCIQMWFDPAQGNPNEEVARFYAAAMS
Assay: ECL sandwich, FRα calibrator; capture 5C12.H8; binder = detection Ab

In the examples that follow, each entry is paired with its recorded Specific signal at 500 pg/mL.
[
  {
    "BINDER": "Monoclonal antibody 1A8.G11.E7 (antibody, mouse IgG1, V domains shown, Murine IgG1 kappa from hybridoma; also called ATCC PTA-123100) VH: ESGPGLVAPSQSLSITCTVSGFSLTSYGVSWVRQPPGKGLEWLGVIWGDGSTNYHSTLISRLSISKDNSKSQVFLKLNSLQTDDTATYYCAKPHPAATGAMDYWGQGTSVTVSS VL: TQTTSSLSASLGDRVTISCRASQDISNHLNWYQQKPDGTVKLLIYYTSRLHSGVPSRFSGSGSGTDYSLTISNLEQEDIATYFCQQGNTLWTFGGGTKLEIK",
    "Specific signal at 500 pg/mL": 76
  },
  {
    "BINDER": "Monoclonal antibody 1C6.E12.G8 (antibody, mouse IgG1, V domains shown, Murine IgG1 kappa from hybridoma; also called ATCC PTA-123091) VH: SGARELVKPGASVKLSCKTSGFTFNSSYITWLKQKPGQSLEWIAWIYAGNGGTTYNQKFTGKAQLTVDTSSSTAYMQFSSLTTEDSAIYYCASETYTNYWYFDVWGSGTTVTVSS VL: QSPASLSASVGETVTITCRASGNIHNYLAWYQQKQGKSPQLLVYNAKTLADGVPSRFSGSGSGTQYSLKINSLQPEDFGSYYCQHFWSTPYTFGGGTKLEIK",
    "Specific signal at 500 pg/mL": 70
  },
  {
    "BINDER": "Monoclonal antibody 19D4.B7 (antibody, mouse IgG2a, V domains shown, SULFO-TAG conjugated when used as detection antibody in the ECL assay; also called ATCC PTA-11884) VH: GARELVKPGASVKLSCTASGFNIKHPYMHWVKQRPDQGLEWIGRIDPANGNTKYDPKFQGKATITADTSSNTAYLQLSSLTSEDTAVYYCGREEVADYTMDYWGQGTSVTVSS VL: PASLAVSLGQRATISCRASESVDTYGNNFIHWYQQKPGQPPKLLIYLASNLESGVPARFSGSGSRTDFTLTIDPVEADDAATYYCQQNNGDPWTFGGGTKLEIKR",
    "Specific signal at 500 pg/mL": 320
  },
  {
    "BINDER": "Monoclonal antibody 24H8.D3 (antibody, mouse IgG1, V domains shown, Biotin-conjugated when used as capture antibody in the ECL assay; also called ATCC PTA-123090) VH: QVQLKESGPGLVAPSQSLSITCTVSGFSLTSYGVSWVRQPPGKGLEWLGVIWGDGSTNYHSTLISRLSISKDNSKSQVFLKLNSLQTDDTATYYCAKPHPAATGAMDYWGQGTSVTVSS VL: DIQMTQTTSSLSASLGDRVTISCRASQDISNHLNWYQQKPDGTIKLLIYYTSKLHSGVPSRFSGSGSGTDYSLTISNLEQEDIATYFCQQGNTLWTFGGGTKLEIK",
    "Specific signal at 500 pg/mL": 69
  }
]

Now take the following binder into account.
For the binder shown here, Monoclonal antibody 26A9.C4 (antibody, mouse IgG1, V domains shown, Murine IgG1 kappa from hybridoma; also called ATCC PTA-123092) VH: SGARELVKPGASVKLSCKTSGFTFSSSFISWLKQKPGQSLEWIAWIYGGNGGTSYNQNFTGKAQLTVDTSSSTAYMQFSSLTTEDSAVYYCASETYGNYWYFDVWGAGTTVTVSS VL: QSPASLSASVGDTVTITCRASGNIHNYLAWYQQKQGKSPQLLVYNAKTLADGVPSRFSGSGSGTQYSLKINSLQPEDFGNYYCQHFWSTPYTFGGGTKLEIK , give the reported Specific signal at 500 pg/mL. 68
